- Target System: human COX-2 (Homo sapiens, UniProt P35354)
- Sequence (P35354 18-604): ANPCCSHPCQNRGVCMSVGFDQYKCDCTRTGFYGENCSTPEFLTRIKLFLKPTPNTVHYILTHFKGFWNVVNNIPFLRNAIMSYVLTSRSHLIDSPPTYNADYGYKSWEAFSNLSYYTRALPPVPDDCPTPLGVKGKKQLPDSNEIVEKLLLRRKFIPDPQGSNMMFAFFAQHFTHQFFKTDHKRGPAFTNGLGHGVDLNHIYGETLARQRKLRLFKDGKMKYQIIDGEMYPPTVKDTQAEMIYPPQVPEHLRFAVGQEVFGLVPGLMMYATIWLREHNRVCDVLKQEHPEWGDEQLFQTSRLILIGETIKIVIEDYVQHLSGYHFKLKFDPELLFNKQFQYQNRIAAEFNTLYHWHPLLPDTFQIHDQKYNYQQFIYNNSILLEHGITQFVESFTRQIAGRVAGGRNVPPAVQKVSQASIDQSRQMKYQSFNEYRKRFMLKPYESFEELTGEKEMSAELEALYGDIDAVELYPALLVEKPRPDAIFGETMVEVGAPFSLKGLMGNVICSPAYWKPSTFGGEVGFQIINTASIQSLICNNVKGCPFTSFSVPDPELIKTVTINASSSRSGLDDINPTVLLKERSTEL
- Assay Name: In vitro enzyme assay, recombinant human COX-2 (PGE2 production)
- Assay type: biochemical
- Cond: read-out: IC50 against recombinant human COX-2
// classify: if (IC50 < 0.6 µM) MET else NOT MET

Compound | Label
Cc1ccc(-c2cc(COc3cccc(O)c3)nn2-c2ccc(S(N)(=O)=O)cc2)cc1 [Compound 6a2] | MET
Cc1ccc(-c2cc(COc3ccccc3O)nn2-c2ccc(S(N)(=O)=O)cc2)cc1 [Compound 6a1] | MET
COc1ccccc1COCc1cc(-c2ccc(C)cc2)n(-c2ccc(S(N)(=O)=O)cc2)n1 [Compound 7a3] | MET
Cc1ccc(-c2cc(COc3ccc4c(=O)c(O)c(-c5ccccc5)oc4c3)nn2-c2ccc(S(N)(=O)=O)cc2)cc1 [Compound 6a4] | NOT MET
COc1ccc(-c2cc(COc3cccc(O)c3)nn2-c2ccc(S(N)(=O)=O)cc2)cc1 [Compound 6c2] | MET
COc1ccc(-c2cc(COc3ccccc3O)nn2-c2ccc(S(N)(=O)=O)cc2)cc1 [Compound 6c1] | MET
NS(=O)(=O)c1ccc(-n2nc(COc3cccc(O)c3)cc2-c2ccccc2)cc1 [Compound 6b2] | MET
NS(=O)(=O)c1ccc(-n2nc(COc3ccccc3O)cc2-c2ccccc2)cc1 [Compound 6b1] | NOT MET
COc1ccc(-c2cc(COc3ccc(O)cc3)nn2-c2ccc(S(N)(=O)=O)cc2)cc1 [Compound 6c3] | NOT MET
NS(=O)(=O)c1ccc(-n2nc(COc3ccc(O)cc3)cc2-c2ccccc2)cc1 [Compound 6b3] | NOT MET
Cc1ccc(-c2cc(COc3ccc(O)cc3)nn2-c2ccc(S(N)(=O)=O)cc2)cc1 [Compound 6a3] | NOT MET
Cc1ccc(-c2cc(COCc3ccccc3O)nn2-c2ccc(S(N)(=O)=O)cc2)cc1 [Compound 7a1] | MET

Data credit: patent US11202773B2
